- PROTOCOL NOTES: RP, Waters ACQUITY UPLC BEH C18, 100 × 1 mm, 1.7 µm, 50 °C, 0.3 mL/min, estimated dead time 0.17 min; A: water + 10 mM ammonium bicarbonate; B: 10% water + 90% methanol + 10 mM ammonium bicarbonate; gradient (min/%B) 0/0 15/100 21/100 22/0 30/0
- APPLIED CONDITIONS: stereoisomer not certain
Answer each item with its documented LC retention time.
Please state the figure in min; there is no need to write the unit.

LC retention time measured on C[N+](C)(C)C[C@H](O)CC(=O)[O-] = 9.28

Looking up CN1CCC23c4c5ccc(O)c4OC2C(O)C=CC3C1C5 (stereo not given) , I see its LC retention time listed as 10.4

// field: LC retention time; key: O=C1CCCC2C3CCCN4CCCC(CN12)C34 (stereo not given) ; value = 13

Note to self: LC retention time recorded for O=C(Nc1ccc([N+](=O)[O-])cc1Cl)c1cc(Cl)ccc1O [Niclosamide] was 13.6

Summary for this compound, COCCCCC(=NOCCN)c1ccc(C(F)(F)F)cc1 : LC retention time is 15.3
